target_desc: T1, human CD16a F176 variant, biotinylated (human, UniProt P08637 17-208, C-terminally biotinylated)
T1 construct: supplier is told for the AlphaScreen assay only; also called F Variant; FcγRIIIA F variant
procedure_text: AlphaScreen competition vs mouse IgG2a
Experimental: Bicyclic peptides were evaluated with a CD16a-IgG competition assay using Perkin Elmer AlphaScreen™ technology. Acceptor beads (Perkin Elmer 6762003) were chemically conjugated via a reductive amination reaction with a mouse IgG2a mAb to link via the free amines, based the manufacturer's protocol. […]
Numbered stars: 1 amine (or outer) side, 2 acyl side, 3 side chain; on linkers, the order of the positions; unused ones are H or OH. Bridge positions count the residues as written; N and C are the ends. Ends that are not written are not given here. * marks the point of attachment. TBMT = 2,4,6-tris(bromomethyl)-s-triazine, C(c1nc(C[*:2])nc(C[*:3])n1)[*:1]; TATA = O=C(CC[*:1])N1CN(C(=O)CC[*:2])CN(C(=O)CC[*:3])C1; Pent4ynoyl = C#CCCC(=O)*
assay_metric: IC50 (nM)
Field format: number, assumed nM, no unit text.

Past entries and their recorded results:
ACVGLEELGPCSDLCAK-NH2 (linker 2-11-15 via TBMT (inferred); not fully specified (residue 17); also: homodimer via shared N-(amine-PEG2)-N-bis(PEG3-azide) linker, homodimer of BCY13886; scaffold TBMT; also called CD16a fluorescent dimer) [BCY15916] : 52.6
ACRWSVEDPCGAWCAK-NH2 (linker 2-10-14 via TBMT (inferred); not fully specified (residue 16); also: homodimer via shared N-(amine-PEG2)-N-bis(PEG3-azide) linker, homodimer of BCY13883; scaffold TBMT; also called CD16a fluorescent dimer) [BCY15914] : 51.1

Give the measured IC50 for ACVGLEELGPCSDLCAK(Pent4ynoyl)-NH2 (linker 2-11-15 via TBMT (inferred), scaffold TBMT) [BCY13886] 1830

Please indicate IC50 recorded for ACPPTVYCHPLDCAK (C-terminal Lys(PYA), scaffold TATA) [BCY15685] 11000

Identify measured IC50 corresponding to ACPPTVYCHPLDCAK-NH2 (linker 2-8-13 via TATA (inferred); not fully specified (residue 15); also: homodimer via shared N-(amine-PEG2)-N-bis(PEG3-azide) linker, homodimer of BCY15685; scaffold TATA; also called CD16a fluorescent dimer) [BCY15915] 27.8
